Measured pIC50 accompanies every entry in the list below.
- study_system: UniProt O76039
- Sequence (O76039 whole entry): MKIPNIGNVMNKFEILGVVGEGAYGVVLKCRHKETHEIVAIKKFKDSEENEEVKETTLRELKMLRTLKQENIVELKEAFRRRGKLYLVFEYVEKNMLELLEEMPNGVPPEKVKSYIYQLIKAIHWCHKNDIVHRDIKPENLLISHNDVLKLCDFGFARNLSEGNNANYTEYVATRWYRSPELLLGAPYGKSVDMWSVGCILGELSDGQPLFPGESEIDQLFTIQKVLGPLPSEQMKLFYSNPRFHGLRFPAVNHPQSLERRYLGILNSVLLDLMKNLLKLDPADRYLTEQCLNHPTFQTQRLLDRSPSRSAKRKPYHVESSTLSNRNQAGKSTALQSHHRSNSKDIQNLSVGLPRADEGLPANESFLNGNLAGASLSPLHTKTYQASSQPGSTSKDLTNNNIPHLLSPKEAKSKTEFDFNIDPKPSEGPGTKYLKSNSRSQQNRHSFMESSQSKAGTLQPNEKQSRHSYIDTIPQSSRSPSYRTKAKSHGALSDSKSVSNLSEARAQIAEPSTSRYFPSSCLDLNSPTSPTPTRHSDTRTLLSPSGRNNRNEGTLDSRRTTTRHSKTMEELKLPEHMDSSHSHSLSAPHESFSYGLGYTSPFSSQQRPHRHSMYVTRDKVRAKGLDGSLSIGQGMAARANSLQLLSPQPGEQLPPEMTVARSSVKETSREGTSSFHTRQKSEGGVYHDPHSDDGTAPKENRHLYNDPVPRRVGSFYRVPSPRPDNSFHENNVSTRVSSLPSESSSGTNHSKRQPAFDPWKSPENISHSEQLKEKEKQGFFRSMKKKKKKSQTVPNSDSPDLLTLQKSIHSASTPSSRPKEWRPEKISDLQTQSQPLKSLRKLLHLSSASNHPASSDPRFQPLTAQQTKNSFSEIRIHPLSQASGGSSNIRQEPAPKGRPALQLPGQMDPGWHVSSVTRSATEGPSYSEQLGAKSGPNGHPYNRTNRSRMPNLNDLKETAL
- protocol_description: pIC50, kinobeads binding competition
- condition_label: cell material: Lysate mix
Simply state the number, no unit and no words.

Answered examples (4):
| molecule | pIC50 |
| --- | --- |
| CCNC(=O)c1cc(Nc2cc(C)[nH]n2)nc(N2CCN(Cc3ccc(S(=O)(=O)F)cc3)CC2)n1 | 5.11 |
| CCNC(=O)c1cc(Nc2cc(C3CC3)[nH]n2)nc(N2CCN(Cc3ccc(S(=O)(=O)F)cc3)CC2)n1 | 6.16 |
| C#CCNC(=O)c1cc(Nc2cc(C)[nH]n2)nc(N2CCN(Cc3ccc(S(=O)(=O)F)cc3)CC2)n1 | 5.23 |
| O=C(NCCNC(=O)c1cc(Nc2cc(C3CC3)[nH]n2)nc(N2CCN(Cc3ccc(S(=O)(=O)F)cc3)CC2)n1)OC1CC/C=C/CCC1 (stereo unspecified) | 5.12 |

Query molecule follows.
Request the reported pIC50 associated with C#CCNC(=O)c1cc(Nc2cc(C3CC3)[nH]n2)nc(N2CCN(Cc3ccc(S(=O)(=O)F)cc3)CC2)n1
6.41

* * *

- study_system: TYK2 (UniProt P29597)
- Sequence (P29597 whole entry): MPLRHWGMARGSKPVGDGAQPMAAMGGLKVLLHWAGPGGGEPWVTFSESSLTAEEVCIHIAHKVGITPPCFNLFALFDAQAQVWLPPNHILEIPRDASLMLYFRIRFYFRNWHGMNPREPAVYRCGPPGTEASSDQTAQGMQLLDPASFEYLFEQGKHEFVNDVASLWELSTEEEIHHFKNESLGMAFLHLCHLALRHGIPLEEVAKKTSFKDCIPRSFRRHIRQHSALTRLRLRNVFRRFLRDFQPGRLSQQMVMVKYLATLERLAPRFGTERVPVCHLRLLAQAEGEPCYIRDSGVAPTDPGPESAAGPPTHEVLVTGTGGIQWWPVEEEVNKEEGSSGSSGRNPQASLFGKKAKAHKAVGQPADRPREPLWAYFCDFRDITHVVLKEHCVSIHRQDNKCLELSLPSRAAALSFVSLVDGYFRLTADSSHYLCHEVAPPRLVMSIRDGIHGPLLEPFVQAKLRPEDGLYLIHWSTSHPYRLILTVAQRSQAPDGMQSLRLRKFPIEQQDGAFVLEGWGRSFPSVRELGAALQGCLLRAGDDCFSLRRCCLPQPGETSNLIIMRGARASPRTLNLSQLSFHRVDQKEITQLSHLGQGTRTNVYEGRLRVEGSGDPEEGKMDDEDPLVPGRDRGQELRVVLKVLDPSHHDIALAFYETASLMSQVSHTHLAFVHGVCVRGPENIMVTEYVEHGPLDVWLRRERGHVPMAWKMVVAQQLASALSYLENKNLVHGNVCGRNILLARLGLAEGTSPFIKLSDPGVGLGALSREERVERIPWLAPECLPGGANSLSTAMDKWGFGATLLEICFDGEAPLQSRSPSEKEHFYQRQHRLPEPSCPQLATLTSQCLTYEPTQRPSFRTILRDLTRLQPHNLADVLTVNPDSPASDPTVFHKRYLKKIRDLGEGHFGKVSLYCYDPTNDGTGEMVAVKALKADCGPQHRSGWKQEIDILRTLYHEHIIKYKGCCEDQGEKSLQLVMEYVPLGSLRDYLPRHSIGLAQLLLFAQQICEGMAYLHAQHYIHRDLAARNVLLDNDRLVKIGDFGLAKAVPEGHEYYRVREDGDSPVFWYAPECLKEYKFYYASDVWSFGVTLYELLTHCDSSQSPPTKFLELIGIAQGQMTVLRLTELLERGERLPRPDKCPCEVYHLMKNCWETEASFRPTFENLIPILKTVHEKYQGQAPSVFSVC
- protocol_description: pIC50, kinobeads binding competition
- condition_label: cell material: Lysate mix
Measured pIC50 accompanies every entry in the list below.

| compound | pIC50 |
| --- | --- |
| O=C(NCCNC(=O)c1cc(Nc2cc(C3CC3)[nH]n2)nc(N2CCN(Cc3ccc(S(=O)(=O)F)cc3)CC2)n1)OC1CC/C=C/CCC1 (stereo unspecified) | < 4.52 |

Request the reported pIC50 associated with CCNC(=O)c1cc(Nc2cc(C)[nH]n2)nc(N2CCN(Cc3ccc(S(=O)(=O)F)cc3)CC2)n1
< 4.52

Please do the same for C#CCNC(=O)c1cc(Nc2cc(C3CC3)[nH]n2)nc(N2CCN(Cc3ccc(S(=O)(=O)F)cc3)CC2)n1 as well.
< 4.52

Please do the same for Cc1cc(Nc2cc(C(=O)NCCNC(=O)OC3CC/C=C/CCC3)nc(N3CCN(Cc4ccc(S(=O)(=O)F)cc4)CC3)n2)n[nH]1 (stereo unspecified) as well.
< 4.52

Please do the same for C#CCNC(=O)c1cc(Nc2cc(C)[nH]n2)nc(N2CCN(Cc3ccc(S(=O)(=O)F)cc3)CC2)n1 as well.
< 4.52

Please do the same for CCNC(=O)c1cc(Nc2cc(C3CC3)[nH]n2)nc(N2CCN(Cc3ccc(S(=O)(=O)F)cc3)CC2)n1 as well.
< 4.52

* * *

- study_system: MAP4K5 (UniProt Q9Y4K4)
- Sequence (Q9Y4K4 whole entry, looked up): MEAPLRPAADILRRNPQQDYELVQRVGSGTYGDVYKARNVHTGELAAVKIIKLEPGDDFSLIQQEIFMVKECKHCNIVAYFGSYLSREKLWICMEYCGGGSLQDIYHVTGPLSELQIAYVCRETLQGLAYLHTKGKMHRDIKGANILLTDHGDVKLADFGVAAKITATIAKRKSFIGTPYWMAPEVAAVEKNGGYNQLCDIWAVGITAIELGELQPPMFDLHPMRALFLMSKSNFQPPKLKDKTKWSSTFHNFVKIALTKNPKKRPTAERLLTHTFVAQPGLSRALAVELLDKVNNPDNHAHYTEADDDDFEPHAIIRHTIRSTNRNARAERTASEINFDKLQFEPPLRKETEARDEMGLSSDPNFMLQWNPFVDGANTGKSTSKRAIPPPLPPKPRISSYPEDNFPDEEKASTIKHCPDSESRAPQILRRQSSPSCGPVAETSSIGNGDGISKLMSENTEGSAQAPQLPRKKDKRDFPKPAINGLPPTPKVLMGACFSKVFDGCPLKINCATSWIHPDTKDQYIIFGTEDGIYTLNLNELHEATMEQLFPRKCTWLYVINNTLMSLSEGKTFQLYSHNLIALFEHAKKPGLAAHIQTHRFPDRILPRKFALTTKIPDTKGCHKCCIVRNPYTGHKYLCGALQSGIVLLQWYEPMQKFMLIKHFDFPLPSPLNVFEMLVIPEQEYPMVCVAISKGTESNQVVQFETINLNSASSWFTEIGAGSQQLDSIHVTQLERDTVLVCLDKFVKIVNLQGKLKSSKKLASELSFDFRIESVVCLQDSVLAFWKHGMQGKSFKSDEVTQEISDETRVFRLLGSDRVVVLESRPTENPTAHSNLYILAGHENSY
- protocol_description: pIC50, kinobeads binding competition
- condition_label: cell material: Lysate mix
recorded_metric: pIC50
Simply state the number, no unit and no words.

Answered examples (3):
| structure_smiles_string | pIC50 |
| --- | --- |
| CCNC(=O)c1cc(Nc2cc(C)[nH]n2)nc(N2CCN(Cc3ccc(S(=O)(=O)F)cc3)CC2)n1 | 5.33 |
| C#CCNC(=O)c1cc(Nc2cc(C3CC3)[nH]n2)nc(N2CCN(Cc3ccc(S(=O)(=O)F)cc3)CC2)n1 | 6.21 |
| CCNC(=O)c1cc(Nc2cc(C3CC3)[nH]n2)nc(N2CCN(Cc3ccc(S(=O)(=O)F)cc3)CC2)n1 | 5.77 |

Query compound follows.
Request the reported pIC50 associated with C#CCNC(=O)c1cc(Nc2cc(C)[nH]n2)nc(N2CCN(Cc3ccc(S(=O)(=O)F)cc3)CC2)n1
5.53
